B1: OR4K15 (parent)
chain: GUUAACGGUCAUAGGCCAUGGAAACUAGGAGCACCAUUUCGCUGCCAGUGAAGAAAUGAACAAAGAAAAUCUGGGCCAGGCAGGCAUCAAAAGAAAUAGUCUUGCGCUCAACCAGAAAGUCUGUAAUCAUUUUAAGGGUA

# Variants of: B1
# test.summary: self-cleavage, relative activity (ratio to wild type); higher = more cleavage; in vitro, sequencing; the parent is a self-cleaving ribozyme
Outcome label depends on self-cleavage relative to 0.8: at/above gives True, below gives False.

{"columns": ["variant.descriptor", "label"],
 "data": [
  ["A63U A68G", "True"],
  ["U12A A82U", "False"],
  ["U2C A90C", "True"],
  ["G73U A118G", "False"],
  ["A95G A140U", "True"],
  ["A30G C112A", "False"],
  ["G8C A64G", "True"],
  ["U72C U124C", "False"],
  ["G14A U127C", "False"],
  ["U57A U108C", "False"],
  ["A91G A111U", "False"],
  ["A60U A110G", "False"],
  ["A22G A111G", "False"],
  ["A96G U108C", "False"],
  ["U102C U130C", "True"],
  ["U38A U87C", "True"],
  ["G14A A89G", "False"],
  ["U120A A135G", "True"],
  ["U19C A82U", "False"],
  ["U70C", "False"],
  ["G7A A116U", "False"],
  ["A63G A94G", "True"],
  ["A24C A62C", "True"],
  ["A23G G50A", "True"],
  ["U9A A125G", "False"],
  ["A13G U108G", "False"],
  ["A59G G80U", "False"],
  ["A23G A111C", "False"],
  ["A52G A92U", "True"],
  ["A60G C76U", "False"],
  ["U49A A60G", "True"],
  ["G58A", "True"],
  ["C105U A135U", "False"],
  ["A90G A140G", "False"],
  ["U87A U122A", "True"],
  ["A33G C81U", "False"],
  ["U57C A140G", "True"],
  ["A5G A55G", "True"],
  ["G41A A51C", "True"],
  ["A4C A111G", "False"],
  ["A89G A96G", "True"],
  ["A89U U139A", "True"],
  ["G53A A117G", "True"],
  ["A94G U108C", "False"],
  ["A96G A111C", "False"],
  ["A11U A92G", "True"],
  ["C76A U120A", "False"],
  ["A59G G75A", "False"],
  ["A56U", "True"],
  ["C45A U127C", "False"],
  ["U43C A63C", "True"],
  ["A30G A63U", "True"],
  ["G104A A140G", "False"],
  ["A18G G93U", "True"],
  ["C25U A66C", "True"],
  ["C34U C105U", "False"],
  ["U19C U39A", "True"],
  ["A47G A82G", "False"],
  ["A63G C105U", "False"],
  ["G65A U108G", "False"],
  ["G65C A111U", "False"],
  ["A47U A66U", "True"],
  ["U43C A54G", "True"],
  ["U49C A118G", "False"],
  ["C71A A98G", "False"],
  ["U70C U127C", "False"],
  ["U38C A68G", "True"],
  ["C45A A98U", "True"],
  ["U9A A11G", "True"],
  ["A60G A95U", "True"],
  ["A69C A117U", "False"],
  ["A5U A110G", "False"],
  ["U12G U100C", "True"],
  ["A13G A36G", "False"],
  ["U133C", "True"]
]}
